We begin with a simple list: items and their reported pEC50.
molecular target: D(2) dopamine receptor (Homo sapiens, UniProt P14416)
Sequence (P14416 whole entry): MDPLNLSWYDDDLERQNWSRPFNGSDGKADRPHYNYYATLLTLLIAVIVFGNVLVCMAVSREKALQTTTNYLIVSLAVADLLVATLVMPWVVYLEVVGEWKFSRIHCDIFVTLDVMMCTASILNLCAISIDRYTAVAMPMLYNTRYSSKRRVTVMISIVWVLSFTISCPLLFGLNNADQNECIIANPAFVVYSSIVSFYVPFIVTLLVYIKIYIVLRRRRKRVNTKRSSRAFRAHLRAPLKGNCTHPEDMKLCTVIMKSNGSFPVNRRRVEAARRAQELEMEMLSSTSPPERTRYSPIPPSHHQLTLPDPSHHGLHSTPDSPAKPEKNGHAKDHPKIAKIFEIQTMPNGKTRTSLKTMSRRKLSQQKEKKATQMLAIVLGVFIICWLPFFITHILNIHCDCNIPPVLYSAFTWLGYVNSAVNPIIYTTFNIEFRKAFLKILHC
To interpret pEC50, take it as minus log10 of a concentration measured in moles per litre.

Below, each entry is followed by its recorded pEC50 result.
{"columns": ["Sample Smiles", "Observed Measurement"],
 "data": [
  ["CN(CCCCOc1ccc2c(c1)NC(=O)CC2)[C@@H]1Cc2cccc3[nH]c(=O)n(c23)C1", 6.80],
  ["CCCN[C@@H]1Cc2cccc3c2n(c(=O)n3CCCCOCCCCc2ccccc2)C1", 7.61],
  ["CN[C@@H]1Cc2cccc3c2n(c(=O)n3CCCCOc2ccc3c(c2)NC(=O)CC3)C1", 6.98],
  ["CCCN(CCC)[C@@H]1Cc2cccc3c2n(c(=O)n3CCC)C1", 9.05],
  ["CCCN(CCC)[C@@H]1Cc2cccc3c2n(c(=O)n3CCCCNC(=O)c2cc3ccccc3[nH]2)C1", 7.24],
  ["CN[C@@H]1Cc2cccc3c2n(c(=O)n3CCOCCOCCOCCCCc2ccccc2)C1", 7.05],
  ["CN[C@@H]1Cc2cccc3c2n(c(=O)n3CCOCCOCCOCCOc2ccc3c(c2)NC(=O)CC3)C1", 5.97],
  ["CCCN(CCCCNC(=O)c1cc2ccccc2[nH]1)[C@@H]1Cc2cccc3c2n(c(=O)n3CCC)C1", 6.34]
]}

What value of pEC50 has been reported for the following compound? "CN[C@@H]1Cc2cccc3c2n(c(=O)n3CCCCCCCCCCCCOc2ccc3c(c2)NC(=O)CC3)C1"
6.18

What value of pEC50 has been reported for the following compound? "CN[C@@H]1Cc2cccc3c2n(c(=O)n3CCOCCOCCCCc2ccccc2)C1"
6.45

###

We begin with a simple list: items and their reported pIC50.
target: D(2) dopamine receptor (Homo sapiens, UniProt P14416)
To interpret pIC50, take it as minus log10 of a concentration measured in moles per litre.

Below, each entry is followed by its recorded pIC50 result.
{"columns": ["Sample Smiles", "Observation Type", "Observed Measurement"],
 "data": [
  ["CCCN(CCC)[C@@H]1Cc2cccc3c2n(c(=O)n3CCCCNC(=O)c2cc3ccccc3[nH]2)C1", "pIC50", 5.70],
  ["CCCN(CCC)[C@@H]1Cc2cccc3c2n(c(=O)n3CCC)C1", "pIC50", 7.00],
  ["CN[C@@H]1Cc2cccc3c2n(c(=O)n3CCCCCCCCCCOCCCCc2ccccc2)C1", "pIC50", 6.10]
]}

What value of pIC50 has been reported for the following compound? "CCCN(CCCCNC(=O)c1cc2ccccc2[nH]1)[C@@H]1Cc2cccc3c2n(c(=O)n3CCC)C1"
5.34

###

We begin with a simple list: items and their reported log10(EC50).
target: D(2) dopamine receptor (Homo sapiens, UniProt P14416)
// do not treat as linear: log10 of EC50, unit nM

Below, each entry is followed by its recorded log10(EC50) result.
{"columns": ["Sample Smiles", "log10(EC50)"],
 "data": [
  ["CN[C@@H]1Cc2cccc3c2n(c(=O)n3CCCCOc2ccc3c(c2)NC(=O)CC3)C1", 3.18],
  ["CN[C@@H]1Cc2cccc3c2n(c(=O)n3CCCCCCCCCCOCCCCc2ccccc2)C1", 3.40],
  ["CCCN(CCC)[C@@H]1Cc2cccc3c2n(c(=O)n3CCC)C1", 1.31]
]}

Item: "CN[C@@H]1Cc2cccc3c2n(c(=O)n3CCOCCOCCCCc2ccccc2)C1" Test system: D(2) dopamine receptor (Homo sapiens, UniProt P14416) Read-out: log10(EC50) Value: ?
3.39

Item: "CCCN[C@@H]1Cc2cccc3c2n(c(=O)n3CCCCOCCCCc2ccccc2)C1" Test system: D(2) dopamine receptor (Homo sapiens, UniProt P14416) Read-out: log10(EC50) Value: ?
2.29

Item: "CN[C@@H]1Cc2cccc3c2n(c(=O)n3CCOCCOCCOCCOc2ccc3c(c2)NC(=O)CC3)C1" Test system: D(2) dopamine receptor (Homo sapiens, UniProt P14416) Read-out: log10(EC50) Value: ?
3.27

Item: "CN[C@@H]1Cc2cccc3c2n(c(=O)n3CCOCCOCCOCCCCc2ccccc2)C1" Test system: D(2) dopamine receptor (Homo sapiens, UniProt P14416) Read-out: log10(EC50) Value: ?
2.14

Item: "CN(CCCCOc1ccc2c(c1)NC(=O)CC2)[C@@H]1Cc2cccc3[nH]c(=O)n(c23)C1" Test system: D(2) dopamine receptor (Homo sapiens, UniProt P14416) Read-out: log10(EC50) Value: ?
1.87

Item: "CCCN(CCCCNC(=O)c1cc2ccccc2[nH]1)[C@@H]1Cc2cccc3c2n(c(=O)n3CCC)C1" Test system: D(2) dopamine receptor (Homo sapiens, UniProt P14416) Read-out: log10(EC50) Value: ?
2.97

Item: "CCCN(CCC)[C@@H]1Cc2cccc3c2n(c(=O)n3CCCCNC(=O)c2cc3ccccc3[nH]2)C1" Test system: D(2) dopamine receptor (Homo sapiens, UniProt P14416) Read-out: log10(EC50) Value: ?
2.43

###

molecular target: D(3) dopamine receptor (Homo sapiens)
Sequence (P35462 whole entry): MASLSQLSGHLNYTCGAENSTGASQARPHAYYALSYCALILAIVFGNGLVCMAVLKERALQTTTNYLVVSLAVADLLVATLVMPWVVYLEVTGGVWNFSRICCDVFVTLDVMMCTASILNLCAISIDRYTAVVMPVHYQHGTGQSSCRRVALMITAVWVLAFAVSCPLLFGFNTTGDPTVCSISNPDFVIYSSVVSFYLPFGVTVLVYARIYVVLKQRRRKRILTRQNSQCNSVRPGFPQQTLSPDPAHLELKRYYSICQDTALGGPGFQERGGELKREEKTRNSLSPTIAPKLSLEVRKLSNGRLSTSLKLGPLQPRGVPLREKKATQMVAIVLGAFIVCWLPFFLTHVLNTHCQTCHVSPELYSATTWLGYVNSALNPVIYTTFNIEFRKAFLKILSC
Observation Type: Ki (nM)
Record the value in nM, omitting the unit from your answer.

Item: "CN[C@@H]1Cc2cccc3[nH]c(=O)n(c23)C1" Test system: D(3) dopamine receptor (Homo sapiens) Read-out: Ki Value: ?
573

###

We begin with a simple list: items and their reported IC50.
molecular target: D(2) dopamine receptor (Homo sapiens, UniProt P14416)
Record the value in µM, omitting the unit from your answer.

{"columns": ["Sample Smiles", "IC50 (µM)"],
 "data": [
  ["CCCN(CCC)[C@@H]1Cc2cccc3c2n(c(=O)n3CCCCNC(=O)c2cc3ccccc3[nH]2)C1", 3.65],
  ["CCCN(CCC)[C@@H]1Cc2cccc3c2n(c(=O)n3CCC)C1", 0.931],
  ["CCCN(CCCCNC(=O)c1cc2ccccc2[nH]1)[C@@H]1Cc2cccc3c2n(c(=O)n3CCC)C1", 2.97],
  ["CN[C@@H]1Cc2cccc3c2n(c(=O)n3CCCCOc2ccc3c(c2)NC(=O)CC3)C1", 4.1]
]}

Query molecule follows.
What value of IC50 has been reported for the following molecule? "CN[C@@H]1Cc2cccc3c2n(c(=O)n3CCCCCCCCCCOCCCCc2ccccc2)C1"
4.49

###

target: D(2) dopamine receptor (Homo sapiens, UniProt P14416)
We begin with a simple list: items and their reported pIC50.
To interpret pIC50, take it as minus log10 of a concentration measured in moles per litre.

{"columns": ["Sample Smiles", "pIC50"],
 "data": [
  ["CCCN(CCC)[C@@H]1Cc2cccc3c2n(c(=O)n3CCCCNC(=O)c2cc3ccccc3[nH]2)C1", 6.15]
]}

What value of pIC50 has been reported for the following compound? "CCCN(CCC)[C@@H]1Cc2cccc3c2n(c(=O)n3CCC)C1"
6.80

###

D(2) dopamine receptor (Homo sapiens) measurements of log10(EC50), listed per entry.
// do not treat as linear: log10 of EC50, unit nM

Below, each entry is followed by its recorded log10(EC50) result.
{"columns": ["Sample Smiles", "Observation Type", "Observed Measurement"],
 "data": [
  ["CN[C@@H]1Cc2cccc3c2n(c(=O)n3CCOCCOCCCCc2ccccc2)C1", "log10(EC50)", 3.09],
  ["CN(CCCCOc1ccc2c(c1)NC(=O)CC2)[C@@H]1Cc2cccc3[nH]c(=O)n(c23)C1", "log10(EC50)", 0.49],
  ["CCCN(CCC)[C@@H]1Cc2cccc3c2n(c(=O)n3CCCCNC(=O)c2cc3ccccc3[nH]2)C1", "log10(EC50)", 1.73],
  ["CCCN(CCCCNC(=O)c1cc2ccccc2[nH]1)[C@@H]1Cc2cccc3c2n(c(=O)n3CCC)C1", "log10(EC50)", 2.53],
  ["CN[C@@H]1Cc2cccc3c2n(c(=O)n3CCCCOc2ccc3c(c2)NC(=O)CC3)C1", "log10(EC50)", 2.41],
  ["CN[C@@H]1Cc2cccc3c2n(c(=O)n3CCCCCCCCCCCCOc2ccc3c(c2)NC(=O)CC3)C1", "log10(EC50)", 3.16],
  ["CN[C@@H]1Cc2cccc3c2n(c(=O)n3CCOCCOCCOCCCCc2ccccc2)C1", "log10(EC50)", 2.45],
  ["CN[C@@H]1Cc2cccc3c2n(c(=O)n3CCOCCOCCOCCOc2ccc3c(c2)NC(=O)CC3)C1", "log10(EC50)", 3.00],
  ["CN[C@@H]1Cc2cccc3c2n(c(=O)n3CCCCCCCCCCOCCCCc2ccccc2)C1", "log10(EC50)", 2.85],
  ["CCCN(CCC)[C@@H]1Cc2cccc3c2n(c(=O)n3CCC)C1", "log10(EC50)", 0.00]
]}

Query compound follows.
What value of log10(EC50) has been reported for the following compound? "CCCN[C@@H]1Cc2cccc3c2n(c(=O)n3CCCCOCCCCc2ccccc2)C1"
1.41
